B1: EHEE_rd2_0196 (parent)
chain: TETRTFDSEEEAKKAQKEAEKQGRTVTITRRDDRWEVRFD

- Variants of: B1
- assayExplanation: folding stability dG (cDNA display proteolysis); higher = more stable
- assaySetup: PBS, room temperature
measuredProperty: folding stability dG (kcal/mol)

sequencedata="TEMRTFDSEEEAKKAQKEAEKQGRTVTITRRDDRWEVRFD [T3M]" unitlabel=kcal/mol val=3.03
sequencedata="TETRTFDSEEEAQKAQKEAEKQGRTVTITRRDDRWEVRFD [K13Q]" unitlabel=kcal/mol val=2.97
sequencedata="TETRTFDSEEEAKKAQKEAEKNGRTVTITRRDDRWEVRFD [Q22N]" unitlabel=kcal/mol val=3.02
sequencedata="THTRTFDSEEEAKKAQKEAEKQGRTVTITRRDDRWEVRFD [E2H]" unitlabel=kcal/mol val=3.05
sequencedata="TETRTFDSEEEAKKAQKEAEKQGRTVCITRRDDRWEVRFD [T27C]" unitlabel=kcal/mol val=3.03
sequencedata="AETRTFDSEEEAKKAQKEAEKQGRTVTITRRDDRWEVRFD [T1A]" unitlabel=kcal/mol val=3.08
sequencedata="TETRTFDSEEEAKHAQKEAEKQGRTVTITRRDDRWEVRFD [K14H]" unitlabel=kcal/mol val=3.05
